Values were extracted from ChEMBL document CHEMBL1155689.

- PROCEDURE DETAILS: Antioxidant scavenging activity against 2,2'-azobis-amidinopropane-induced peroxyl radicals assessed as total oxyradical scavenging capacity
- Assay type: physicochemical
- Parameters: unit not given here
READOUT NAME: Activity
Answer with the value's number alone.

Examples with their reported Activity follow.
COc1cc(-c2cc(=O)c3c(O)c(O)c(OC)c(OC)c3o2)ccc1O
8.53
COc1cc(-c2cc(=O)c3c(O)c(OC)c(OC)c(OC)c3o2)ccc1O
4.53
O=c1c(O)c(-c2ccc(O)c(O)c2)oc2cc(O)cc(O)c12 [QUERCETIN]
40.32
C[C@@H]1O[C@@H](OC[C@H]2O[C@@H](Oc3c(-c4ccc(O)c(O)c4)oc4cc(O)cc(O)c4c3=O)[C@H](O)[C@@H](O)[C@@H]2O)[C@H](O)[C@H](O)[C@H]1O [RUTIN]
28.96
Cc1c(C)c2c(c(C)c1O)CCC(C)(C(=O)O)O2 (stereo unspecified) [TROLOX]
5.62

Exercise: Value lookup for Activity; key = COc1ccc(-c2oc3cc(OC)c(OC)c(O)c3c(=O)c2OC)cc1OC [ARTEMETIN]
Solution: 1.55
